- Protocol Text: blockers of DNA damage checkpoint Chk1 activation – imaging, HeLa, hydroxyurea, phospho-Chk1 nuclear intensity, primary screen (AID 1187); also: test concentration not given here
- Test Conditions: hydroxyurea-induced phospho-Chk1 immunofluorescence imaging, higher = more signal
Metric Name: z-score
Answers are plain numbers.

Some solved cases for reference:
>>> numeric_result("CCCCCC1=C2CNC(CC(C)C)(C(=O)OC)C=C2C(C)C1=O (centres undefined)")
0.856
>>> numeric_result("NC(=O)NCC#Cc1ccc2c(c1)[C@]1(C(=O)N2)[C@H](c2ccc(OCCO)cc2)N2[C@H](c3ccccc3)[C@H](c3ccccc3)OC(=O)[C@H]2[C@@H]1C(=O)NC[C@H](O)c1ccccc1")
-0.572
>>> numeric_result("COC(=O)[C@@]1(Cc2ccc(F)cc2)[C@H]2c3cc(C(=O)N(C)C)n(CCc4ccc(O)c(O)c4)c3C[C@H]2CN1C(=O)c1ccccc1")
0.0787

molecule `C=CCN1Cc2ccccc2[C@H]2OC(c3ccc(OCCCO)cc3)=N[C@@]2(CCS(=O)(=O)c2ccccc2)C1=O` , z-score observed: -0.237

====

Kindly supply the reported composite z-score values for the records listed here.
- Target System: Torsin-1A-interacting protein 2 (Homo sapiens)
- Protocol Text: small molecules binding lysate-expressed LULL1 – cell lysate, human LULL1 lysate, 635/667 nm fluorescence, primary screen (AID 1092);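 also: probe is lysate of COS7 cells overexpressing human LULL1; score merges per-feature 667 nm fluorescence with signal-to-noise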
- Test Conditions: small-molecule microarray, hLULL1 lysate binding, 635 nm fluorescence; higher = more signal
Give bare numbers.

Some solved cases for reference:
>>> numeric_result("COC(=O)[C@@]1(Cc2ccc(OC)cc2)[C@H]2c3cc(C(=O)N4CCCC4)n(CCn4cc([N+](=O)[O-])nc4C)c3C[C@H]2CN1C(=O)c1ccccc1")
3.38
>>> numeric_result("O=C(NC1CC1)[C@@H]1c2ccccc2C(=O)N(Cc2cc(C(F)(F)F)cc(C(F)(F)F)c2)[C@H]1c1ccc(CO)cc1")
2.92
>>> numeric_result("C=CC[C@@]1(C(=O)N(C)C)N=C(c2ccc(OCCCO)cc2)O[C@@H]1c1ccccc1CN=[N+]=[N-]")
3.33
>>> numeric_result("CC(C)NC(=O)[C@@]1(C)c2ccccc2C(=O)N(Cc2ccccc2)[C@H]1c1ccc(CO)cc1")
3.22
>>> numeric_result("C=C1C(=O)C=C2CN(C(=O)c3ccccc3)[C@@](Cc3ccc(OC)cc3)(C(=O)OC)[C@@H]12")
3.85

Parameters: items (list). Returns: composite z-score for each item.
1. C=CC1c2cc(O)c(OC)cc2CCN1C (stereo not drawn)
2. COCCOC(=O)N1C(=O)[C@@]2(c3cc(C#CCC(C(=O)OC)C(=O)OC)ccc31)[C@H](C(N)=O)[C@H]1C(=O)O[C@H](c3ccccc3)[C@H](c3ccccc3)N1[C@@H]2c1ccc(O)cc1
3. Cc1ccc(S[C@]2(C(=O)NCCCN(C)C)CC(=O)N(Cc3ccccc3C(F)(F)F)[C@@H]2c2ccc(CO)cc2I)cc1
4. COCCOC(=O)N1C(=O)[C@@]2(c3cc(C#CCCO)ccc31)[C@H](c1ccccc1OCCO)N1[C@H](c3ccccc3)[C@H](c3ccccc3)OC(=O)[C@H]1[C@@H]2C(N)=O
5. [N-]=[N+]=Nc1ccccc1[C@@H]1OC(c2ccc(OCCCO)cc2)=N[C@]1(CCS(=O)(=O)c1ccccc1)C(=O)NCC(O)CO (stereo partly drawn)
6. COCCOC(=O)N1C(=O)[C@@]2(c3cc(C#CCC(C(=O)OC)C(=O)OC)ccc31)[C@H](C(=O)Nc1nc3ccccc3s1)[C@H]1C(=O)O[C@H](c3ccccc3)[C@H](c3ccccc3)N1[C@@H]2c1ccc(O)cc1

0.134
2.58
3.18
3.08
3.1
2.51

Parameters: items (list). Returns: composite z-score for each item.
1. COC(=O)C(CC#Cc1ccc2c(c1)[C@]1(C(=O)N2)[C@H](c2ccccc2OCCO)N2[C@H](c3ccccc3)[C@H](c3ccccc3)OC(=O)[C@H]2[C@@H]1C(=O)N1CCc2cc(OC)c(OC)cc2C1)C(=O)OC
2. O=C(NCC(O)CO)[C@@]1(CCS(=O)(=O)c2ccccc2)N=C(c2ccc(OCCCO)cc2)O[C@H]1c1ccccc1 (stereo partly drawn)
3. CC(C)[Si](C#CCCc1ccccc1)(O[C@H](c1ccccc1)c1cn(Cc2ccccc2)nn1)C(C)C
4. C=C(CCCC)/C(=C/C[C@H](OC(C)=O)c1cccc(OCCO)c1)c1cnc2ccccc2c1
5. CN1C(=O)C2C(C3CC3)C=C3CN(Cc4cccc(Cl)c4)[C@@H]([C@@H](O)Cc4ccccc4)C3C2C1=O (stereo partly drawn)
6. CC(=O)c1ccc(C(O)C2C=CC3C(=O)N(c4ccccc4)C(=O)C3N2Nc2ccc(C(C)C)cc2)cc1 (stereo not drawn)
7. COC(=O)[C@@]1(Cc2ccc(F)cc2)[C@H]2c3cc(C(=O)N(C)C)n(C)c3C[C@H]2CN1C(=O)c1ccccc1

1. 3.01
2. 3.56
3. 0.958
4. -0.0488
5. 2.94
6. 2.24
7. 2.54

Parameters: items (list). Returns: composite z-score for each item.
1. CC1CC/C=C\[C@H]2OC34C=CCN(c5ccc6ccccc6c5)C(=O)[C@H]3N(C(C)CO)C(=O)[C@@H]4C2C(=O)O1 (stereo partly drawn)
2. CC(C)C[C@@H]1NC(=O)[C@@H]2C[C@H](C(=O)NCCCCCCNC(=O)CS)[C@H](c3cccc(OCCO)c3)N2C1=O
3. CC(C)=CCCC(C)=CC(O)C1C=CC2C(=O)NC(=O)C2N1Nc1ccccn1 (stereo not drawn)
4. C=CCC(OC(C)=O)[C@@H]1[C@@H](N(Cc2cccc3ccccc23)C(=O)Cc2ccc(OC)cc2)c2cc(OCCCO)ccc2N1C(=O)c1ccc2ccccc2c1 (stereo partly drawn)
5. COc1ccc([Si](C)(C)[C@@H]2[C@@H](CC(=O)N(CCO)Cc3ccccc3)O[C@]3(C(=O)N(Cc4ccc(I)cc4)c4ccccc43)[C@H]2C)cc1
6. COc1ccc(C(O)C2C=CC3C(=O)N(c4ccccc4)C(=O)C3N2Nc2ccc(C#N)cc2)cc1OCc1ccccc1 (stereo not drawn)

1. -0.172
2. 2.84
3. 1.8
4. 1.06
5. -0.0159
6. 2.6

Parameters: items (list). Returns: composite z-score for each item.
1. CCCCCC1=C2CNC(Cc3ccccc3)(C(=O)OC)C=C2C(C)C1=O (stereo not drawn)
2. COCCOC(=O)N1C(=O)[C@@]2(c3ccccc31)[C@H](C(=O)N1CCN(c3ncccn3)CC1)[C@H]1C(=O)O[C@H](c3ccccc3)[C@H](c3ccccc3)N1[C@@H]2c1ccccc1OCCO
3. O=C(NCCN1CCOCC1)[C@@H]1c2ccccc2C(=O)N(Cc2ccc(OC(F)(F)F)cc2)[C@H]1c1ccc(CO)cc1

2.5
2.61
3.09

compound N#Cc1ccc(C(O)C2C=CC3C(=O)NC(=O)C3N2Nc2ccc(Cl)cc2Cl)cc1 (stereo not drawn) , composite z-score observed: 3.39

====

- Protocol Text: small molecules captured by biotinylated probe aFST – biochemical, small-molecule microarray, fluorescence 635/667, stem cell growth factor project, primary screen (AID 1086);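 also: score merges 667 nm fluorescence with signal-to-noise of each printed compound spot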
- Test Conditions: higher = more signal
Metric Name: composite z-score
Answers are plain numbers.

Some solved cases for reference:
>>> numeric_result("COCCOC(=O)N1C(=O)[C@@]2(c3cc(C#CCC(C(=O)OC)C(=O)OC)ccc31)[C@H](C(=O)Nc1nc3ccccc3s1)[C@H]1C(=O)O[C@H](c3ccccc3)[C@H](c3ccccc3)N1[C@@H]2c1ccc(OCCO)cc1")
0.853
>>> numeric_result("CC(C)C(O)C1C=CC2C(=O)NC(=O)C2N1Nc1ccccn1 (centres undefined)")
0.547
>>> numeric_result("COc1cc(CO)cc(I)c1O[C@H]1C=C(C(=O)NCCO)C[C@@H](NC2CCCCCC2)[C@@H]1O")
-0.0564
>>> numeric_result("CC(C)NC(=O)[C@@H]1c2ccccc2C(=O)N(Cc2ccccc2C(F)(F)F)[C@H]1c1ccc(CO)cc1")
0.618
>>> numeric_result("C=CCNC(=O)[C@@H]1[C@H]2C(=O)O[C@H](c3ccccc3)[C@H](c3ccccc3)N2[C@H](c2ccc(OCCO)cc2)[C@@]12C(=O)Nc1ccc(C#CC3(O)CCCCCC3)cc12")
0.551

Parameters: items (list). Returns: composite z-score for each item.
1. O=C(NC1CC1)[C@@H]1c2ccccc2C(=O)N(Cc2cc(C(F)(F)F)cc(C(F)(F)F)c2)[C@H]1c1ccc(CO)cc1
2. CN1C(=O)[C@@H]2[C@@H](CC(COc3ccccc3)=C3[C@@H](CCc4ccccc4)OB(O)C[C@@H]32)C1=O
3. COC(=O)C[C@H]1O[C@@]2(C[C@@H]1[Si](C)(C)C)C(=O)N(C)c1ccccc12
4. COC(=O)[C@]1(CCC(=O)OC(C)(C)C)N=C(c2ccc(OCCCO)cc2)O[C@@H]1c1ccccc1N=[N+]=[N-]
5. COc1ccc(NN2C(C(O)c3ccc(I)cc3)C=CC3C(=O)N(C4CCCCC4)C(=O)C32)cc1 (centres undefined)
6. COC(=O)[C@@]1(Cc2ccc(F)cc2)[C@H]2c3cc(C(=O)N4CCCC4)n(Cc4cc(F)cc5c4OCOC5)c3C[C@H]2CN1C(=O)c1ccccc1
7. COCCOC(=O)N1C(=O)[C@@]2(c3cc(C#CCC(C(=O)OC)C(=O)OC)ccc31)[C@H](C(N)=O)[C@H]1C(=O)O[C@H](c3ccccc3)[C@H](c3ccccc3)N1[C@@H]2c1ccc(O)cc1

1. -0.131
2. 0.0157
3. 0.607
4. 0.219
5. 1.61
6. 1.56
7. 0.838

Parameters: items (list). Returns: composite z-score for each item.
1. Cc1ccc(C(C)CC(O)C2C=CC3C(=O)N(C)C(=O)C3N2Nc2ccccc2)o1 (centres undefined)
2. C=CCC(OC(C)=O)[C@@H]1[C@@H](N(Cc2cc3ccccc3o2)C(=O)Cc2ccc(OC)cc2)c2cc(OCCCO)ccc2N1C(=O)c1ccc2ccccc2n1 (some centres undefined)

1.44
0.271
